system: Plasmodium berghei; assay: Luciferase/luciferin-expressing antifolate-resistant parasites were used to infect a culture of HepG2 cells that were pre-incubated with compounds. Infected hepatocytes emit light due to the luciferase reaction. Assay results are presented as the percent inhibition of light emission compared to control. […]; assay type: functional; details: sporozoite, FFLUC_HILL_SLOPE 0.471, FFLUC_R_SQUARED 0.601, PBLUC_HILL_SLOPE 1.29, PBLUC_R_SQUARED 0.771, read-out: LUCIFERASE INFECTION ASSAY - IC50
readout.name: pIC50
Bear in mind: pIC50 is minus log10 of a mol/L concentration; give just that figure.

Q) Please report the measured pIC50 for `C/N=c1\scc(-c2ccco2)n1/N=C/c1sccc1C`
A) 6.67
